Origin of values: patent US20260242735A1

- System tested: human CD33 S104A (human, UniProt P20138 18-364)
- Sequence (P20138 18-364 S104A limits assumed): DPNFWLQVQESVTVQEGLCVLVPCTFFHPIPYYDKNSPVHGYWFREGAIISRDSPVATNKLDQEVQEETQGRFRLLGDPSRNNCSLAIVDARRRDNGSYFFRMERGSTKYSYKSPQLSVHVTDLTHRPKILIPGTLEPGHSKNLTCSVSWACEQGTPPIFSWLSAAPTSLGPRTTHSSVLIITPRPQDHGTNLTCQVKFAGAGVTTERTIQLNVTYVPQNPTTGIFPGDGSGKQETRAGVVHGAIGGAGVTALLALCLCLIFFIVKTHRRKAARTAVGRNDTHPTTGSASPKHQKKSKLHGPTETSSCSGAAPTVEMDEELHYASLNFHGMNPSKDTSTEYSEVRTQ
- Method description: flow cytometry on HEK293-T, alanine scan
Recorded measurements of Mean % WT Binding, one per entry
Write the value in % WT binding as a bare number.

Q: Dear colleague, please send me the reported Mean % WT Binding for Refmab #3 (antibody, V domains shown, The alanine scan used IgG or Fab) VH: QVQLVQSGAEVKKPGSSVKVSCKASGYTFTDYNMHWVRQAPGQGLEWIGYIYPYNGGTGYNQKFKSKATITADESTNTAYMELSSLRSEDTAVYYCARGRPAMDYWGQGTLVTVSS VL: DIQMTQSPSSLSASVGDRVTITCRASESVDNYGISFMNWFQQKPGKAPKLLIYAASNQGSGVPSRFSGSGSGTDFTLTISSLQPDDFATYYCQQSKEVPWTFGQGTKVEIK when you can.
Ans: 102

Q: Dear colleague, please send me the reported Mean % WT Binding for Refmab #1 (antibody, V domains shown, The alanine scan used IgG or Fab; also called hP67.6) VH: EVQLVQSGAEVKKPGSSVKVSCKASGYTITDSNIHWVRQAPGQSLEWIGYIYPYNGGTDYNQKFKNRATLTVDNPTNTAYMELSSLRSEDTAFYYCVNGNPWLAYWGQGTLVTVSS VL: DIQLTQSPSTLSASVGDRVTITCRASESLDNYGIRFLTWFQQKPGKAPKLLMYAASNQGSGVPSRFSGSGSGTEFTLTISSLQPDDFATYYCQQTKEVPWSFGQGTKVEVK when you can.
Ans: 89

Q: Dear colleague, please send me the reported Mean % WT Binding for Refmab #2 (antibody, V domains shown, The alanine scan used IgG or Fab) VH: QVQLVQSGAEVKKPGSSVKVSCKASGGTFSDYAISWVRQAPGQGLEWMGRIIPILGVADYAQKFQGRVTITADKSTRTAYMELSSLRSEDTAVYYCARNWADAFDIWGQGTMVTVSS VL: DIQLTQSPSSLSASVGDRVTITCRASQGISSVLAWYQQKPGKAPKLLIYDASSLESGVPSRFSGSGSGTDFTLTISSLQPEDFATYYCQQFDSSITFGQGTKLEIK when you can.
Ans: 109

Q: Dear colleague, please send me the reported Mean % WT Binding for Refmab #4 (antibody, V domains shown, The alanine scan used IgG or Fab) VH: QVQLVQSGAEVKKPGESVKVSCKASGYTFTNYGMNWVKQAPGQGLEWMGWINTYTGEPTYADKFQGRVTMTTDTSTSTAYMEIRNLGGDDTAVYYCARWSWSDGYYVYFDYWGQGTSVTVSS VL: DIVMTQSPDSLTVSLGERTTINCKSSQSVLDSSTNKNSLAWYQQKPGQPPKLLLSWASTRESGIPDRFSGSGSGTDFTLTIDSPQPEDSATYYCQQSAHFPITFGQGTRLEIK when you can.
Ans: 86.4
